Attribute: Kd
- ASSAY_TARGET: T1, human PD-1 (construct not stated) (human, UniProt Q15116 25-167, limits assumed)
- T1 construct: also called PD-1 analyte
- T1 sequence (Q15116 25-167 limits assumed): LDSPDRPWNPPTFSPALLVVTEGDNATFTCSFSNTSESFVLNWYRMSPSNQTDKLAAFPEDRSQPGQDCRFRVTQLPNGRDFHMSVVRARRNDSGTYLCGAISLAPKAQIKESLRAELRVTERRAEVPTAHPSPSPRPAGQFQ
- PROTOCOL_TEXT: Biacore, antibody captured, PD-1 analyte

// below: answered binders
13F1 murine anti-PD-1 antibody (antibody, V domains shown, Purified hybridoma antibody; also called 13F1-mIgG1) VH: DVQLQESGPGLVKPSQSLSLTCTVTGYSITSDYAWNWIRQFPGNQLEWMAYISYSGYTSYNPSLKSRISITRDTSKNQFFLQLNSVTTEDTATYYCARSLDYDYGTMDYWGQGTSVTVSS VL: QIVLSQSPAILSASPGEKVTMTCRANSSVSSMHWYQQKPGSSPEPWIYAISNLAFGVPTRFSGSGSGTSYSLTISRVEAEDAATYFCQQWSSRPPTFGGGTKLEIKR	0.0278 nM
5A8 murine anti-PD-1 antibody (antibody, V domains shown, Purified hybridoma antibody; also called 5A8-mIgG1) VH: QVQLQQSGDELVRPGTSVKMSCKAAGYTFTNNWIGWVKQRPGHGLEWIGDFYPGGGYTNYNEKFKGKATLTADTSSSTAYMQLSSLTSEDSAIYYCARGYGTNYWYFDVWGAGTTVTVSS VL: NIVMTQTPKILFISAGDRVTITCKASQSVSNDVAWYQQKPGQSPKLLIYYAFTRYIGVPDRFTGSGYGTDFTFTISTVQAEDLAVYFCQQDYSSPYTFGGGTKLEIKR	0.0587 nM
7A4 murine anti-PD-1 antibody (antibody, V domains shown, Purified hybridoma antibody; also called 7A4-mIgG1) VH: QIHLVQSGPELKKPGETVKISCKASGYTFTNFGMNWVKQAPGKGLKWMGWISGYTREPTYAADFKGRFAISLETSASTAYLQINDLKNEDMATYFCARDVFDYWGQGTTLTVSS VL: DIVLTQSPASLAVSLGQRATISCRASESVDNYGYSFMNWFQQKPGQPPKLLIYRASNLESGIPARFSGSGSRTNFTLTINPVEADDVATYFCQQSNADPTFGGGTNLEIKR	0.0246 nM

Could you now consider this next binder?
Exercise: For the binder 7D3 murine anti-PD-1 antibody (antibody, V domains shown, Purified hybridoma antibody; also called 7D3-mIgG1) VH: EVKLVESGGGLVKPGGSLKLSCGASGFTFSSYGMSWVRQTPEKRLEWVATISGGGRDIYYPDSVKGRLTISRDNAKNNLYLQMSSLRSEDTALYYCVRQYYDDWFAYWGQGTLVTVSA VL: DIVLTQSPATLSVTPGDSVSLSCRASQSISNDLHWYQQKSHESPRLLIKYVSQSISGIPSRFSGSGSGTDFTLSINSVETEDFGMYFCQQSDSWPLTFGAGTKLELKR , what Kd is on record?
Key: 0.0249 nM
